target: T1, human S100A4 dimer (Homo sapiens, UniProt P26447 1-101); assay: SPR, Biacore T200, 25 C; S100A4 captured via anti-His, antibody as analyte (0.78-200 nM), 1:1 fit
T1 construct: In the SPR it was captured on an anti-His surface, so it carried a His tag; also called recombinant human S100A4 dimer
T1 sequence (P26447 whole entry, one chain of several): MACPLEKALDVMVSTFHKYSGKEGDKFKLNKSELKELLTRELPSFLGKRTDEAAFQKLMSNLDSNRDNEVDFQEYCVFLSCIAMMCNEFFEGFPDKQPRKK
reported_metric: kon

binder="VH1 VL3_L42Gly+L44Leu (antibody, V domains shown) VH: QVQLQESGPGLVKPSQTLSLTCTVSGDSFTNDYYWNWIRQHPGKGLEWIGHIGYGGNINYNPSLKNRLSMSRDTSKNQFSLKLSSVTAADTAVYYCTRESFYDGYPFDYWGQGTLVTVSS VL: DIQMTQSPSSLSASVGDRVTITCRASQDIRNYLNWYQQKPGGALKLLLYYTSRLHSGVPSRFSGSGSGTDYTLTISSLQPEDFATYYCQQGNSLPRTFGGGTKVEIK" reported_metric=kon observed_value="263000 M⁻¹ s⁻¹"
binder="VH1_H44Lys VL3 (antibody, V domains shown) VH: QVQLQESGPGLVKPSQTLSLTCTVSGDSFTNDYYWNWIRQHPGKKLEWIGHIGYGGNINYNPSLKNRLSMSRDTSKNQFSLKLSSVTAADTAVYYCTRESFYDGYPFDYWGQGTLVTVSS VL: DIQMTQSPSSLSASVGDRVTITCRASQDIRNYLNWYQQKPGKAPKLLLYYTSRLHSGVPSRFSGSGSGTDYTLTISSLQPEDFATYYCQQGNSLPRTFGGGTKVEIK" reported_metric=kon observed_value="213000 M⁻¹ s⁻¹"

Moving on to another binder below.
Sample VH1 VL3_L43Thr (antibody, V domains shown) VH: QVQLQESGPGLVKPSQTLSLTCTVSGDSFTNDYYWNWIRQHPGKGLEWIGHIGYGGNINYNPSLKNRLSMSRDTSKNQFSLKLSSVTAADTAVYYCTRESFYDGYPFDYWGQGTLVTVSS VL: DIQMTQSPSSLSASVGDRVTITCRASQDIRNYLNWYQQKPGKTPKLLLYYTSRLHSGVPSRFSGSGSGTDYTLTISSLQPEDFATYYCQQGNSLPRTFGGGTKVEIK — what was its kon?
187000 M⁻¹ s⁻¹
